Taken from patent US20090018118A1.

# System: cholesterol biosynthesis in HepG2 cells
# assay_overview: Metabolic labeling of HepG2 cells with [3H]acetate; radio-HPLC sterol profile (inhibition of cholesterol biosynthesis)
# Type: cell-based, human
# conditions_used: Table II (arranged by sterol profile); 10 μM compound, HepG2; normalized to normal medium (1.00)
Structures can show the parent of a compound that is named as a salt.
measured_metric: lanosterol
No unit in the answer, please; the number alone is enough.

The following compounds have reported results that may help.
CC(C)c1c(C(=O)Nc2ccccc2)c(-c2ccccc2)c(-c2ccc(F)cc2)n1CC[C@@H](O)C[C@@H](O)CC(=O)O [atorvastatin, reference compound]	0.00
c1ccc(CCN2CCN(CCCc3cccnc3)CC2)cc1 [LK-9140, trihydrobromide]	0.24
OC(CN1CCN(c2ccc(F)cc2)CC1)c1cccnc1 (stereo not shown) [LK-9144, trihydrobromide]	0.88

Moving on to another compound below.
INPUT: # input compound: c1ccc(CCN2CCN(CCc3cccnc3)CC2)cc1 [LK-9100, trihydrobromide] ; wanted: its lanosterol
OUTPUT: 0.83

----------
# Tested on: cholesterol biosynthesis in HepG2 cells
# assay_overview: Metabolic labeling of HepG2 cells with [3H]acetate; radio-HPLC sterol profile (inhibition of cholesterol biosynthesis)
# Type: cell-based, human
# conditions_used: Homo sapiens, 24 h; Table I; 10 μM compound, HepG2; sterol level normalized to normal medium (1.00); mean of 4 experiments; read-out: FF-MAS
Structures can show the parent of a compound that is named as a salt.
Listed compounds paired with reported activity at 10 µM
Quick reminder: number only, in %, skip the unit.

Solved cases (4 shown):
c1ccc(CCN2CCN(Cc3cccnc3)CC2)cc1 [LK-9108, trihydrobromide]	310
OC(CN1CCN(CCc2ccccc2)CC1)c1ccncc1 (centres unmarked) [LK-9110B]	374
FC(F)(F)c1ccc(CN2CCN(CCc3ccccc3)CC2)cn1 [LK-9107, trihydrobromide]	129
FC(F)(F)c1cnc(N2CCCN(CCc3ccccc3)CC2)c(Cl)c1 [LK-9115, trihydrobromide]	442

INPUT: Which activity at 10 µM value belongs to c1ccc(CCN2CCN(CCc3ccncc3)CC2)cc1 [LK-9118B] ?
OUTPUT: 350

----------
# Test system: cholesterol biosynthesis in HepG2 cells
# assay_overview: Metabolic labeling of HepG2 cells with [3H]acetate; radio-HPLC sterol profile (inhibition of cholesterol biosynthesis)
# Format: cell-based, human
# conditions_used: Table II (arranged by sterol profile); 10 μM compound, HepG2; normalized to normal medium (1.00)
Where a name gives a salt, the structure may show the parent alone.
Classes are defined on zymosterol+7-dehydrocholesterol with ranges band A (below 0.2), band B (0.2 to below 1), band C (1 or more)

Fc1ccc(CCN2CCN(CCc3ccccn3)CC2)cc1F [LK-9138, trihydrobromide]	band B
c1ccc(CCN2CCN(Cc3cccnc3)CC2)cc1 [LK-9108, trihydrobromide]	band C
Fc1ccc(CCN2CCN(CCc3ccncc3)CC2)cc1F [LK-9131, trihydrobromide]	band A
COc1ccc(CN2CCN(CCc3ccccc3)CC2)cn1 [LK-9106, trihydrobromide]	band B
c1ccc(CCN2CCN(CCCc3cccnc3)CC2)cc1 [LK-9140, trihydrobromide]	band A

INPUT: Determine which band this compound sits in: FC(F)(F)c1cnc(N2CCCN(CCc3ccccc3)CC2)c(Cl)c1 [LK-9115, trihydrobromide]
OUTPUT: band B

INPUT: Likewise for c1ccc(CCN2CCN(CCc3cccnc3)CC2)cc1 [LK-9100, trihydrobromide] ?
OUTPUT: band B

INPUT: Now try Clc1ccc(CCN2CCN(CCc3ccncc3)CC2)cc1Cl [LK-9135, trihydrobromide] .
OUTPUT: band A
